Readings of pKd for the listed binders
system-under-test: T1, RHPN1, Q8TCX5
T1 sequence (Q8TCX5 508-602, limits assumed, looked up): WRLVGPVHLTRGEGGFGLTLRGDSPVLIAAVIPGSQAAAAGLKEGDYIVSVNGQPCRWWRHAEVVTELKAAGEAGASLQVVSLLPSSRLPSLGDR
assay-procedure: holdup assay
Design: key: below the threshold = too weak to quantify, mostly under pKd 3.1 to 4
stated-conditions: plain residues with an end cap or a label only (N-terminal biotin on a linker: ado-ado)
Number only, no unit.

- binder: "RDYTQSSSSL [GRM5, P41594]"
  pKd: 3.51
- binder: "LLQEEWETVM [PTH1R, Q03431]"
  pKd: 4.41
- binder: "SRPHTNETSL [MCC, P23508]"
  pKd: 4.64
- binder: "TKDKVQETQI [LRRC4, Q9HBW1]"
  pKd: 4.84

Name the reported pKd value associated with the binder KLQNPNQSVV [TYRP1, P17643]
3.77

These data points were gathered from paper PMC9482650.
